- Tested on: rhinovirus HGP
- method-summary: Inhibition of viral cytopathogenic effect (c.p.e.) of rhinovirus HGP in HeLa cells
- Format: cell-based, human rhinoviruses
- run-conditions: Enterovirus, HeLa, 48 h, read-out: IC50 against rhinovirus HGP (concentration inhibiting the viral c.p.e. by 50%)
Form field: IC50 (one value per entry).
// note: answer is a bare numeric in µg/mL

Some solved cases for reference:
{"columns": ["compound", "unit-descriptor", "IC50"],
 "data": [
  ["CCOc1cc(OC)cc(O)c1C(=O)/C=C/c1ccc(OC)cc1", "µg/mL", 0.01],
  ["CCC(=O)Oc1cc(OC)cc(OC)c1C(=O)C=Cc1ccc2c(c1)OCO2", "µg/mL", 0.1],
  ["COc1ccc(/C=C/C(=O)c2c(O)cc(OC)cc2OC)c(OC)c1", "µg/mL", 0.1],
  ["COc1cc(O)c(C(=O)/C=C/c2ccc(OCc3ccccc3)c(OC)c2)c(OC)c1", "µg/mL", 1],
  ["COc1cc(O)c(C(=O)C=Cc2ccc(C)o2)c(OC)c1", "µg/mL", 0.03],
  ["CCCOc1ccc(/C=C/C(=O)c2c(O)cc(OC)cc2OC)cc1", "µg/mL", 0.1],
  ["COc1cc(O)c(C(=O)C=Cc2sccc2C)c(OC)c1", "µg/mL", 0.1],
  ["COc1ccc(/C=C/C(=O)c2c(O)cc(OC)cc2OC)cc1 [2'-hydroxy-4,4',6'-trimethoxychalcone]", "µg/mL", 0.01]
]}

Query: Recall and state the measured IC50 for CCOc1cc(OC)cc(O)c1C(=O)C=Cc1ccc(C)o1 .
Reply: 0.04

Query: Recall and state the measured IC50 for COc1cccc(/C=C/C(=O)c2c(O)cc(OC)cc2OC)c1 [2'-hydroxy-3,4',6'-trimethoxychalcone] .
Reply: 0.1

Query: Recall and state the measured IC50 for COc1cc(O)c(C(=O)C=Cc2cccn2C)c(OC)c1 .
Reply: 0.1

Query: Recall and state the measured IC50 for COc1cc(O)c(C(=O)C=Cc2ccc3c(c2)OCO3)c(OC)c1 .
Reply: 0.02

====

- method-summary: in vivo
- run-conditions: mouse, po, DDY mice, single dose, p.o., suspended in 0.5% carboxymethyl cellulose, day 21, read-out: LD50 p.o.
quantity: LD50 at 504 h

{"columns": ["compound", "LD50 at 504 h"],
 "data": [
  ["CCC(=O)Oc1cc(OC)cc(OC)c1C(=O)C=Cc1ccco1", "> 1000 mg/kg"]
]}

Query: Recall and state the measured LD50 at 504 h for COc1cc(O)c(C(=O)C=Cc2sccc2C)c(OC)c1 .
Reply: > 1500 mg/kg

Query: Recall and state the measured LD50 at 504 h for COc1ccc(/C=C/C(=O)c2c(O)cc(OC)cc2OC)cc1 [2'-hydroxy-4,4',6'-trimethoxychalcone] .
Reply: > 5000 mg/kg

Query: Recall and state the measured LD50 at 504 h for CCC(=O)Oc1cc(OC)cc(OC)c1C(=O)C=Cc1ccc(C)o1 .
Reply: > 2000 mg/kg

Query: Recall and state the measured LD50 at 504 h for CCCOc1cc(OC)cc(O)c1C(=O)/C=C/c1ccc(OC)cc1 .
Reply: > 1500 mg/kg

====

- Tested on: rhinovirus HGP
- method-summary: Inhibition of viral cytopathogenic effect (c.p.e.) of rhinovirus HGP in HeLa cells
- Assay type: cell-based, human rhinoviruses
- run-conditions: Enterovirus, HeLa, 48 h, read-out: IC50 against rhinovirus HGP (concentration inhibiting the viral c.p.e. by 50%)
Form field: IC50 (one value per entry).
// note: answer is a bare numeric in µg/mL

{"columns": ["smiles-record", "quantity", "unit-descriptor", "observed-measurement"],
 "data": [
  ["CCC(=O)Oc1cc(OC)cc(OC)c1C(=O)/C=C/c1ccc(C)cc1", "IC50", "µg/mL", 0.03],
  ["CCOc1cc(O)c(C(=O)C=Cc2ccc(C)o2)c(OC)c1", "IC50", "µg/mL", 0.03],
  ["COc1cc(O)c(C(=O)/C=C/c2ccc(C)cc2)c(OC)c1", "IC50", "µg/mL", 0.01],
  ["CCC(=O)Oc1cc(OC)cc(OC)c1C(=O)C=Cc1cccn1C", "IC50", "µg/mL", 0.3]
]}

Next:
Query: Recall and state the measured IC50 for COc1ccc(/C=C/C(=O)c2c(OC)cc(OC)cc2OC(=O)CCCC(=O)O)cc1 .
Reply: 0.03

====

Form field: LD50 at 504 h (one value per entry).
- method-summary: in vivo
- run-conditions: mouse, po, DDY mice, single dose, p.o., suspended in 0.5% carboxymethyl cellulose, day 21, read-out: LD50 p.o.

Some solved cases for reference:
{"columns": ["compound", "observed-measurement"],
 "data": [
  ["CCOc1cc(OC)cc(OC(=O)CC)c1C(=O)/C=C/c1ccc(OC)cc1", "> 5000 mg/kg"],
  ["COc1cc(O)c(C(=O)C=Cc2cccn2C)c(OC)c1", "> 1000 mg/kg"],
  ["COc1cc(O)c(C(=O)/C=C/c2ccccc2)c(OC)c1 [2'-hydroxy-4',6'-dimethoxychalcone]", "> 5000 mg/kg"],
  ["COc1cc(O)c(C(=O)/C=C/c2ccc(Cl)cc2)c(OC)c1", "> 5000 mg/kg"],
  ["CCOc1cc(O)c(C(=O)/C=C/c2ccc(OC)cc2)c(OC)c1", "> 5000 mg/kg"],
  ["COc1cc(O)c(C(=O)/C=C/c2ccc(O)cc2)c(OC)c1 [2',4-dihydroxy-4',6'-dimethoxychalcone]", "> 3200 mg/kg"],
  ["CCOc1cc(OC)cc(O)c1C(=O)C=Cc1ccc(C)o1", "> 1000 mg/kg"],
  ["CCOc1ccc(/C=C/C(=O)c2c(O)cc(OC)cc2OC)cc1", "> 5000 mg/kg"],
  ["COc1cc(O)c(C(=O)/C=C/c2cccc(OC)c2OC)c(OC)c1", "> 1000 mg/kg"]
]}

Next:
Query: Recall and state the measured LD50 at 504 h for CCC(=O)Oc1cc(OC)cc(OC(C)C)c1C(=O)/C=C/c1ccc(OC)cc1 .
Reply: > 1000 mg/kg

====

Form field: LD50 at 504 h (one value per entry).
- method-summary: in vivo
- run-conditions: mouse, po, DDY mice, single dose, p.o., suspended in 0.5% carboxymethyl cellulose, day 21, read-out: LD50 p.o.

Some solved cases for reference:
{"columns": ["compound", "quantity", "observed-measurement"],
 "data": [
  ["CCOc1ccc(/C=C/C(=O)c2c(O)cc(OCC)cc2OCC)cc1", "LD50 at 504 h", "> 3000 mg/kg"],
  ["CCC(=O)Oc1cc(OC)cc(OC)c1C(=O)/C=C/c1ccc(Cl)cc1", "LD50 at 504 h", "> 5000 mg/kg"],
  ["CCOc1ccc(/C=C/C(=O)c2c(OC)cc(OC)cc2OC(=O)CC)cc1", "LD50 at 504 h", "> 5000 mg/kg"],
  ["COc1cc(O)c(C(=O)/C=C/c2ccc(C#N)cc2)c(OC)c1", "LD50 at 504 h", "> 1000 mg/kg"]
]}

Query: Recall and state the measured LD50 at 504 h for COc1cc(O)c(C(=O)C=Cc2ccc3c(c2)OCO3)c(OC)c1 .
Reply: > 5000 mg/kg

Query: Recall and state the measured LD50 at 504 h for COc1ccc(/C=C/C(=O)c2c(OC)cc(OC)cc2OC(=O)[C@H](C)N)cc1 .
Reply: > 1000 mg/kg

Query: Recall and state the measured LD50 at 504 h for COc1ccc(/C=C/C(=O)c2c(O)cc(OC)cc2OC)c(OC)c1 .
Reply: > 1000 mg/kg

Query: Recall and state the measured LD50 at 504 h for COc1ccc(/C=C/C(=O)c2c(OC)cc(OC)cc2OC(C)=O)cc1 .
Reply: > 5000 mg/kg

Query: Recall and state the measured LD50 at 504 h for COc1ccc(/C=C/C(=O)c2c(OC)cc(OC)cc2OC(=O)c2cccnc2)cc1 .
Reply: > 4000 mg/kg

Query: Recall and state the measured LD50 at 504 h for CCCOc1ccc(/C=C/C(=O)c2c(O)cc(OC)cc2OC)cc1 .
Reply: > 5000 mg/kg

Query: Recall and state the measured LD50 at 504 h for CCOc1cc(O)c(C(=O)C=Cc2ccc(C)o2)c(OC)c1 .
Reply: > 1000 mg/kg

Query: Recall and state the measured LD50 at 504 h for CCC(=O)Oc1cc(OC)cc(OC)c1C(=O)/C=C/c1ccc(OC)cc1 .
Reply: > 5000 mg/kg

Query: Recall and state the measured LD50 at 504 h for CCOc1ccc(/C=C/C(=O)c2c(OCC)cc(OCC)cc2OC(=O)CC)cc1 .
Reply: > 5000 mg/kg

Query: Recall and state the measured LD50 at 504 h for COc1cc(O)c(C(=O)C=Cc2ccc(C)o2)c(OC)c1 .
Reply: > 2000 mg/kg

Query: Recall and state the measured LD50 at 504 h for CCCCCCCCCCCCCCCCCC(=O)Oc1cc(OC)cc(OC)c1C(=O)/C=C/c1ccc(OC)cc1 .
Reply: > 4000 mg/kg

Query: Recall and state the measured LD50 at 504 h for COc1cc(O)c(C(=O)C=Cc2ccco2)c(OC)c1 .
Reply: > 1500 mg/kg
